These data points were gathered from ChEMBL document CHEMBL1141537.

# Study system: UniProt Q02763
# Sequence (Q02763 whole entry): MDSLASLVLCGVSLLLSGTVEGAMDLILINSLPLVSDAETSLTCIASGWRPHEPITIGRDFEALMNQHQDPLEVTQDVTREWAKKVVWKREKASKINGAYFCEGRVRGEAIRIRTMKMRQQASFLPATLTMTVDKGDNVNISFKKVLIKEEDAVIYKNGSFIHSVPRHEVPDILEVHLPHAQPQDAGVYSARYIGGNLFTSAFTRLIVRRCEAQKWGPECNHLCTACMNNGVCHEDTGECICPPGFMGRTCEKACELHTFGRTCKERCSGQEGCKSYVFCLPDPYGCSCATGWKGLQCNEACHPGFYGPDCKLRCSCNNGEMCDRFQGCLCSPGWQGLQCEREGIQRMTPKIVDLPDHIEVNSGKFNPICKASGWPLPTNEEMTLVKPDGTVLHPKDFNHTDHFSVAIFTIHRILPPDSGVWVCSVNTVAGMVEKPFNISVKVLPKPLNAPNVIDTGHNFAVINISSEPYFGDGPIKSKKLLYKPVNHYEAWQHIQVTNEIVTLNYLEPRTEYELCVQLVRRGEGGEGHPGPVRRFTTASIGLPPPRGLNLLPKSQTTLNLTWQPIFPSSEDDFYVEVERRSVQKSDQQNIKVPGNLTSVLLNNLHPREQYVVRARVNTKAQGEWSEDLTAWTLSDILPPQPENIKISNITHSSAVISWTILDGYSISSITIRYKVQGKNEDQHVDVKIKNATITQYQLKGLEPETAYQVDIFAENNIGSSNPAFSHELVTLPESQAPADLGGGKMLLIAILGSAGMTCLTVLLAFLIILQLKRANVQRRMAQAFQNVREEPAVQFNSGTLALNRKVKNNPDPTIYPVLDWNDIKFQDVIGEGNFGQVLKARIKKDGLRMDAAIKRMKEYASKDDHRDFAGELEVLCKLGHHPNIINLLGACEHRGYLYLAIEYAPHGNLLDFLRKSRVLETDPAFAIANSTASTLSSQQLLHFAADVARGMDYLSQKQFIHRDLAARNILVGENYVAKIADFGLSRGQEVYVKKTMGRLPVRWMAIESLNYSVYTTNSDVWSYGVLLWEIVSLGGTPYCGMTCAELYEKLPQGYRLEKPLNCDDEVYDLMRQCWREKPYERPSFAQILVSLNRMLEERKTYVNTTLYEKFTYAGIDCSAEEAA
# Procedure details: Inhibition of human recombinant TIE2 by HTRF assay
Labelling: IC50 reported below 100 nM becomes 1; at or above becomes 0.

Here's what some known entries look like.
Bench note: check whether CO/N=C(\C)c1ccc2c(c1)c1c3c(c4c(c1n2CC(C)C)CCc1nn(C)cc1-4)C(=O)NC3 shows IC50 below 100 nM
1

Bench note: check whether C/C(=N\OC(C)C)c1ccc2c(c1)c1c3c(c4c(c1n2C(C)C)CCc1nn(C)cc1-4)C(=O)NC3 shows IC50 below 100 nM
1

Bench note: check whether CCn1c2ccc(/C(C)=N/OCC(C)C)cc2c2c3c(c4c(c21)CCc1nn(C)cc1-4)C(=O)NC3 shows IC50 below 100 nM
1

Bench note: check whether C/C(=N\OCC(C)C)c1ccc2c(c1)c1c3c(c4c(c1n2CC(C)C)CCc1nn(C)cc1-4)C(=O)NC3 shows IC50 below 100 nM
1

Bench note: check whether CCCn1c2ccc(/C(C)=N/OC)cc2c2c3c(c4c(c21)CCc1nn(C)cc1-4)C(=O)NC3 shows IC50 below 100 nM
1

Bench note: check whether CO/N=C(\C)c1ccc2[nH]c3c4c(c5c(c3c2c1)CNC5=O)-c1cn(C)nc1CC4 shows IC50 below 100 nM
1

---
Bench note: check whether CCO/N=C(/c1ccc2[nH]c3c4c(c5c(c3c2c1)CNC5=O)-c1cn(C)nc1CC4)C(C)C shows IC50 below 100 nM
1

Bench note: check whether CCCCn1c2ccc(/C(C)=N/OC)cc2c2c3c(c4c(c21)CCc1nn(C)cc1-4)C(=O)NC3 shows IC50 below 100 nM
0

Bench note: check whether Cn1cc2c(n1)CCc1c-2c2c(c3c1[nH]c1ccccc13)CNC2=O shows IC50 below 100 nM
0

Bench note: check whether CCO/N=C(\C)c1ccc2c(c1)c1c3c(c4c(c1n2CC(C)C)CCc1nn(C)cc1-4)C(=O)NC3 shows IC50 below 100 nM
1

Bench note: check whether CO/N=C(\C)c1ccc2c(c1)c1c3c(c4c(c1n2C)CCc1nn(C)cc1-4)C(=O)NC3 shows IC50 below 100 nM
0

Bench note: check whether C/C(=N\OC(C)(C)C)c1ccc2[nH]c3c4c(c5c(c3c2c1)CNC5=O)-c1cn(C)nc1CC4 shows IC50 below 100 nM
1

Bench note: check whether C/C(=N\OCC(C)C)c1ccc2[nH]c3c4c(c5c(c3c2c1)CNC5=O)-c1cn(C)nc1CC4 shows IC50 below 100 nM
1

Bench note: check whether C/C(=N\O)c1ccc2[nH]c3c4c(c5c(c3c2c1)CNC5=O)-c1cn(C)nc1CC4 shows IC50 below 100 nM
1

Bench note: check whether CCn1c2ccc(/C(C)=N/OC)cc2c2c3c(c4c(c21)CCc1nn(C)cc1-4)C(=O)NC3 shows IC50 below 100 nM
0
